- target: murine CCR2 (Mus musculus, UniProt P51683)
- Construct: host or cells: U2OS β-arrestin cell line
- Sequence (P51683 whole entry): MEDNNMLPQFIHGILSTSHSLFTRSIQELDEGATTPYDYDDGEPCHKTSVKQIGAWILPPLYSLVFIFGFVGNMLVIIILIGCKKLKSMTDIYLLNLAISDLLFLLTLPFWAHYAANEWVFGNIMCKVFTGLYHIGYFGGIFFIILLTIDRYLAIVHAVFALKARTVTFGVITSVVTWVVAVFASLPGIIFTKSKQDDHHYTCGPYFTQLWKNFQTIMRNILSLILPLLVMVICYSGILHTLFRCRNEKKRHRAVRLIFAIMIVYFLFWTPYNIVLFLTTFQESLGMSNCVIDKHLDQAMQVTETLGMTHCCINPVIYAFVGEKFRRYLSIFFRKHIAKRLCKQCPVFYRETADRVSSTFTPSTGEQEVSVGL
- testDescription: Functional β-arrestin recruiting test with murine MCP-1 (B-2b)
- Format: cell-based
- conditionSummary: U2OS β-arrestin cell line transfected with murine CCR2; agonist murine MCP-1; in some cases means of several determinations
Overview of reported pIC50 across a group of molecules:
FYI, pIC50 means -log10 of a concentration in mol per litre.

Answered examples (6):
molecule	parameter	resultValue
O=c1[nH]c(-c2ccc(Cl)cn2)nc(C(F)(F)F)c1Oc1ccc(Cl)c(C(F)(F)F)c1 [Example 195]	pIC50	6.80
O=c1[nH]c(-c2ncon2)nc(C(F)(F)F)c1Oc1ccc(Cl)c(C(F)(F)F)c1 [Example 78]	pIC50	7.30
O=c1[nH]c(-c2cccc[n+]2[O-])nc(C(F)(F)F)c1Oc1ccc(Cl)c(Cl)c1 [Example 161]	pIC50	6.36
C[S+]([O-])c1cccnc1-c1nc(C(F)(F)F)c(Oc2ccc(Cl)c(C(F)(F)F)c2)c(=O)[nH]1 (centres unmarked) [Example 265]	pIC50	6.59
COc1ncccc1-c1nc(C(F)(F)F)c(Oc2ccc(Cl)c(Cl)c2)c(=O)[nH]1 [Example 42]	pIC50	6.09
Cn1ccc(-c2nc(C(F)(F)F)c(Oc3ccc(Cl)c(C(F)(F)F)c3)c(=O)[nH]2)n1 [Example 226]	pIC50	7.06

Name the reported pIC50 value associated with the molecule O=c1[nH]c(Cc2ccno2)nc(C(F)(F)F)c1Oc1ccc(Cl)c(Cl)c1 [Example 95]
6.35

Name the reported pIC50 value associated with the molecule CSc1ccnc(-c2nc(C(F)(F)F)c(Oc3ccc(Cl)c(C(F)(F)F)c3)c(=O)[nH]2)c1 [Example 191]
6.16
